Listed here: items and their measured Estrogen Receptor Affinity (RBA).
Target: estrogen receptor (Homo sapiens, UniProt P03372)
Sequence (P03372 1-595): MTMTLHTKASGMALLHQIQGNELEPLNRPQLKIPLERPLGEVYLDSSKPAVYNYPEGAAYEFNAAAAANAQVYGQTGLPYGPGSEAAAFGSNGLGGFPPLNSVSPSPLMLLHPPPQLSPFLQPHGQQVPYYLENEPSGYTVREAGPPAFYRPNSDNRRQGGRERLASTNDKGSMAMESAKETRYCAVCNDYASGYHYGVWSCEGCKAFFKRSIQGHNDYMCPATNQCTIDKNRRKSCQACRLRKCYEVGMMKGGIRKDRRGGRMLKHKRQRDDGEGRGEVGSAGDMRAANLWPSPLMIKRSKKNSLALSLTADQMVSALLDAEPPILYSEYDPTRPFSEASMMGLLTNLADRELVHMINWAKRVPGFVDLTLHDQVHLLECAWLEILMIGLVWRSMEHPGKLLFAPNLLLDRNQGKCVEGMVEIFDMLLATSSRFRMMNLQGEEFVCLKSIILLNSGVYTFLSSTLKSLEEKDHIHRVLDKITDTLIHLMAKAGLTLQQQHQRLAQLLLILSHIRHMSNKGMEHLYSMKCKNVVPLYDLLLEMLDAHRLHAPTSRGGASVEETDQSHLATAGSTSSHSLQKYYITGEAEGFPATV
Assay: In Vitro Estrogen Receptor Binding Assay ([3H]-17β-estradiol competition, cytosol of CHO cells overexpressing the estrogen receptor)
Parameters: made in house; host or cells: CHO cells overexpressing the receptor; 100,000 g cytosol
RECORDED ENDPOINT: Estrogen Receptor Affinity (RBA)

>  <COMPOUND>
CCCCN(C)C(=O)/C=C/c1ccc(Cn2c(-c3ccc(O)cc3)c(C)c3cc(O)ccc32)cc1 [Example 12]

>  <OBSERVED MEASUREMENT>
114

$$$$
>  <COMPOUND>
CNC(=O)/C=C/c1ccc(Cn2c(-c3ccc(O)cc3)c(C)c3cc(O)ccc32)cc1 [Example 15]

>  <OBSERVED MEASUREMENT>
53

$$$$
>  <COMPOUND>
CCN(CC)C(=O)/C=C/c1ccc(Cn2c(-c3ccc(O)cc3)c(C)c3cc(O)ccc32)cc1 [Example 7]

>  <OBSERVED MEASUREMENT>
42

$$$$
>  <COMPOUND>
Cc1c(-c2ccc(O)cc2)n(Cc2ccc(/C=C/C(N)=O)cc2)c2ccc(O)cc12 [Example 14]

>  <OBSERVED MEASUREMENT>
32

$$$$

###

Listed here: items and their measured % Activation (alkaline phosphatase).
Test system: Ishikawa cells
Experiment: Ishikawa Cell Alkaline Phosphatase Assay
Type: cell-based, human
Conditions: compound alone, 48 h; percent of response related to 1 nM 17β-estradiol
RECORDED ENDPOINT: % Activation (alkaline phosphatase)

>  <STRUCTURE>
Cc1c(-c2ccc(O)cc2)n(Cc2ccc(/C=C/C(=O)N3CCCC3)cc2)c2ccc(O)cc12

>  <RECORDED ENDPOINT>
% Activation (alkaline phosphatase)

>  <OBSERVED MEASUREMENT>
3%

$$$$
>  <STRUCTURE>
Cc1c(-c2ccc(O)cc2)n(Cc2ccc(/C=C/C(=O)NC(C)(C)C)cc2)c2ccc(O)cc12

>  <RECORDED ENDPOINT>
% Activation (alkaline phosphatase)

>  <OBSERVED MEASUREMENT>
10%

$$$$
>  <STRUCTURE>
CCCCN(C)C(=O)/C=C/c1ccc(Cn2c(-c3ccc(O)cc3)c(C)c3cc(O)ccc32)cc1

>  <RECORDED ENDPOINT>
% Activation (alkaline phosphatase)

>  <OBSERVED MEASUREMENT>
7%

$$$$
>  <STRUCTURE>
Cc1c(-c2ccc(O)cc2)n(Cc2ccc(/C=C/C(=O)N(C)C)cc2)c2ccc(O)cc12

>  <RECORDED ENDPOINT>
% Activation (alkaline phosphatase)

>  <OBSERVED MEASUREMENT>
6%

$$$$
>  <STRUCTURE>
CCN(CC)C(=O)/C=C/c1ccc(Cn2c(-c3ccc(O)cc3)c(C)c3cc(O)ccc32)cc1

>  <RECORDED ENDPOINT>
% Activation (alkaline phosphatase)

>  <OBSERVED MEASUREMENT>
1%

$$$$
>  <STRUCTURE>
CCCCN(CCCC)C(=O)/C=C/c1ccc(Cn2c(-c3ccc(O)cc3)c(C)c3cc(O)ccc32)cc1

>  <RECORDED ENDPOINT>
% Activation (alkaline phosphatase)

>  <OBSERVED MEASUREMENT>
6%

$$$$
>  <STRUCTURE>
Cc1c(-c2ccc(O)cc2)n(Cc2ccc(/C=C/C(=O)N3CCOCC3)cc2)c2ccc(O)cc12

>  <RECORDED ENDPOINT>
% Activation (alkaline phosphatase)

>  <OBSERVED MEASUREMENT>
7%

$$$$
>  <STRUCTURE>
O=C(c1ccc(OCCN2CCCCC2)cc1)c1c(-c2ccc(O)cc2)sc2cc(O)ccc12

>  <RECORDED ENDPOINT>
% Activation (alkaline phosphatase)

>  <OBSERVED MEASUREMENT>
5%

$$$$

###

Listed here: items and their measured Estrogen Receptor Affinity (RBA).
Molecular target: estrogen receptor (Homo sapiens)
Experiment: In Vitro Estrogen Receptor Binding Assay ([3H]-17β-estradiol competition, cytosol of CHO cells overexpressing the estrogen receptor)
Set-up: made in house; host or cells: CHO cells overexpressing the receptor; 100,000 g cytosol
Description: In Vitro Estrogen Receptor Bonding Assay CHO cells overexpressing the estrogen receptor were grown in 150 mm^2 dishes in DMEM+10% dextran coated charcoal, stripped fetal bovine serum. […] 100 uG/100 uL of the receptor preparation was aliquoted per well. […] Samples were counted to 2% or 10 minutes, whichever occurs first. […] Also, wells containing radioactivity but no cytosol were processed with charcoal to estimate unremovable DPM of [^3 H] […]

>  <STRUCTURE>
Cc1c(-c2ccc(O)cc2)n(Cc2ccc(/C=C/C(=O)N(C)C)cc2)c2ccc(O)cc12

>  <TARGET DESC>
estrogen receptor (Homo sapiens)

>  <Estrogen Receptor Affinity (RBA)>
20

$$$$
>  <STRUCTURE>
Cc1c(-c2ccc(O)cc2)n(Cc2ccc(/C=C/C(=O)NC(C)(C)C)cc2)c2ccc(O)cc12

>  <TARGET DESC>
estrogen receptor (Homo sapiens)

>  <Estrogen Receptor Affinity (RBA)>
40

$$$$
>  <STRUCTURE>
CCCCN(CCCC)C(=O)/C=C/c1ccc(Cn2c(-c3ccc(O)cc3)c(C)c3cc(O)ccc32)cc1

>  <TARGET DESC>
estrogen receptor (Homo sapiens)

>  <Estrogen Receptor Affinity (RBA)>
80

$$$$

###

Listed here: items and their measured activation at 1 µM.
Target: estrogen receptor (Homo sapiens)
Sequence (P03372 1-595): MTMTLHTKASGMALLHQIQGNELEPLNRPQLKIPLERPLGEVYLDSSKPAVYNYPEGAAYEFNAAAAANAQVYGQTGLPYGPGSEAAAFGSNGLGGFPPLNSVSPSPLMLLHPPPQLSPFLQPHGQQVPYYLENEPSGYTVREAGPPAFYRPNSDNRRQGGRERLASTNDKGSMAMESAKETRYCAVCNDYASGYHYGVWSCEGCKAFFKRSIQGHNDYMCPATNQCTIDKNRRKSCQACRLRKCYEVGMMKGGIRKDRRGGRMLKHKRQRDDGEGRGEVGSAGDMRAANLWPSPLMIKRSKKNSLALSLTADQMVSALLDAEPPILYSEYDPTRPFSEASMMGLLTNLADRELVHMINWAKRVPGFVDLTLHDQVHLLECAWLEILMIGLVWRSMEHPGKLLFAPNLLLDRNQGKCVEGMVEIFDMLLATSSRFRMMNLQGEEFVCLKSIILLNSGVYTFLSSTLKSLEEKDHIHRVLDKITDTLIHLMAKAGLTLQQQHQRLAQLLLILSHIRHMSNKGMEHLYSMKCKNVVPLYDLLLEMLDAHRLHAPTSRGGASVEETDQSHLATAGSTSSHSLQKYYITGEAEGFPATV
Assay: 2X VIT ERE Transfection (luciferase) Assay in CHO cells
Type: cell-based
Set-up: expressed in transfected cells; host or cells: Chinese Hamster Ovary (CHO) cells, stably transfected
Conditions: CHO, 24 h

>  <STRUCTURE>
CCCCN(C)C(=O)/C=C/c1ccc(Cn2c(-c3ccc(O)cc3)c(C)c3cc(O)ccc32)cc1

>  <TARGET DESC>
estrogen receptor (Homo sapiens)

>  <activation at 1 µM, %>
13

$$$$
>  <STRUCTURE>
CNC(=O)/C=C/c1ccc(Cn2c(-c3ccc(O)cc3)c(C)c3cc(O)ccc32)cc1

>  <TARGET DESC>
estrogen receptor (Homo sapiens)

>  <activation at 1 µM, %>
15

$$$$
>  <STRUCTURE>
Cc1c(-c2ccc(O)cc2)n(Cc2ccc(/C=C/C(=O)N(C)C)cc2)c2ccc(O)cc12

>  <TARGET DESC>
estrogen receptor (Homo sapiens)

>  <activation at 1 µM, %>
1

$$$$
>  <STRUCTURE>
CCN(CC)C(=O)/C=C/c1ccc(Cn2c(-c3ccc(O)cc3)c(C)c3cc(O)ccc32)cc1

>  <TARGET DESC>
estrogen receptor (Homo sapiens)

>  <activation at 1 µM, %>
4

$$$$
>  <STRUCTURE>
Cc1c(-c2ccc(O)cc2)n(Cc2ccc(/C=C/C(=O)NC(C)(C)C)cc2)c2ccc(O)cc12

>  <TARGET DESC>
estrogen receptor (Homo sapiens)

>  <activation at 1 µM, %>
6

$$$$
>  <STRUCTURE>
Cc1c(-c2ccc(O)cc2)n(Cc2ccc(/C=C/C(N)=O)cc2)c2ccc(O)cc12

>  <TARGET DESC>
estrogen receptor (Homo sapiens)

>  <activation at 1 µM, %>
19

$$$$
>  <STRUCTURE>
CCCCN(CCCC)C(=O)/C=C/c1ccc(Cn2c(-c3ccc(O)cc3)c(C)c3cc(O)ccc32)cc1

>  <TARGET DESC>
estrogen receptor (Homo sapiens)

>  <activation at 1 µM, %>
8

$$$$
>  <STRUCTURE>
Cc1c(-c2ccc(O)cc2)n(Cc2ccc(/C=C/C(=O)N3CCOCC3)cc2)c2ccc(O)cc12

>  <TARGET DESC>
estrogen receptor (Homo sapiens)

>  <activation at 1 µM, %>
8

$$$$
>  <STRUCTURE>
Cc1c(-c2ccc(O)cc2)n(Cc2ccc(/C=C/C(=O)N3CCCC3)cc2)c2ccc(O)cc12

>  <TARGET DESC>
estrogen receptor (Homo sapiens)

>  <activation at 1 µM, %>
6

$$$$
